STUDY_TARGET: Lck (Homo sapiens)
Sequence (P06239 whole entry, species assumed): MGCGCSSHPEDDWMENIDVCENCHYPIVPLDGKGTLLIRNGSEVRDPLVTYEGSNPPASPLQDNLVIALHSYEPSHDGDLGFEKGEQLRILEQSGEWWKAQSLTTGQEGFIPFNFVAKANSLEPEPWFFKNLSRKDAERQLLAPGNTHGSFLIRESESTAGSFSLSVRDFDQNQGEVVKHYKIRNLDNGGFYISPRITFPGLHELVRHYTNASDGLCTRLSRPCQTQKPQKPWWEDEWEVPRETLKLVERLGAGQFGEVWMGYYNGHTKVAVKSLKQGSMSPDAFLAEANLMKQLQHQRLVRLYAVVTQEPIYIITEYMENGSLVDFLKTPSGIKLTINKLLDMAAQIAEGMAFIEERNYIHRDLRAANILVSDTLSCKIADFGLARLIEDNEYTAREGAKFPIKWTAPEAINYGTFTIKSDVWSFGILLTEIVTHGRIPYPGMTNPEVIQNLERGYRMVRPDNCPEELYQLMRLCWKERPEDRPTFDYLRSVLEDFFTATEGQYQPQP
pIC50: −log10 of the molar value.
Overview of reported pIC50 across a group of molecules:

CN(C)C/C=C/C(=O)N1CC[C@@H](n2nc(-c3ccc(C(=O)Nc4cc(C(F)(F)F)ccn4)cc3)c3c(N)ncnc32)C1 [Example 26]    < 5.00
CCc1cnc(NC(=O)c2ccc(-c3nn([C@@H]4CCN(C(=O)/C=C/CN(C)C5CC5)C4)c4ncnc(N)c34)cc2)s1 [Example 9]    > 7.00
COc1cc(-c2nn([C@@H]3CCN(C(=O)/C=C/CN(C)C4CC4)C3)c3ncnc(N)c23)ccc1C(=O)Nc1cc(C)ccn1 [Example 5]    5.00 to 6.00

Then there is this molecule:
Lookup: Field: pIC50 (Lck (Homo sapiens)). Entry: CN(C/C=C/C(=O)N1CC[C@@H](n2nc(-c3ccc(C(=O)Nc4cc(C(F)(F)F)ccn4)cc3)c3c(N)ncnc32)C1)C1CC1 [Example 2]
Found: 6.00 to 7.00
